# Tested on: Klebsiella pneumoniae
# EXPERIMENTAL PROTOCOL: Antimicrobial activity against Klebsiella pneumoniae ATCC 13883 after 24 hrs by two-fold serial dilution method
# Assay type: functional
# ASSAY SETUP: ATCC 13883, 24 h
REPORTED METRIC: MIC (µg/mL)
Reply numerically in µg/mL, unit not repeated.

Worked examples, 8 compounds total:
INSERT INTO measurements (compound, reported_metric, reported_result) VALUES
  ('Cc1ccc(-n2nnc(C3=NN(c4nc(-c5ccc(Cl)cc5)cs4)C(c4ccc(F)cc4)C3)c2C)cc1 (stereo unspecified)', 'MIC', 16.5),
  ('Cc1ccc(-n2nnc(C(=O)/C=C/c3ccc(C#N)cc3)c2C)cc1', 'MIC', 16.5),
  ('Cc1ccc(-n2nnc(C3=NN(C(=S)Nc4ccccc4)C(c4ccc(F)cc4)C3)c2C)cc1 (stereo unspecified)', 'MIC', 16.5),
  ('Cc1ccc(-n2nnc(C3=NN(c4nc(-c5ccccc5)cs4)C(c4ccc(F)cc4)C3)c2C)cc1 (stereo unspecified)', 'MIC', 33),
  ('Cc1ccc(-n2nnc(C(=O)/C=C/c3ccc(F)cc3)c2C)cc1', 'MIC', 132),
  ('Cc1ccc(-n2nnc(C3=NN(C(=S)Nc4ccccc4)C(c4ccccc4)C3)c2C)cc1 (stereo unspecified)', 'MIC', 16.5),
  ('Cc1ccc(-n2nnc(C3=NNC(c4ccc(C#N)cc4)C3)c2C)cc1 (stereo unspecified)', 'MIC', 8.25),
  ('O=C(O)c1cn(C2CC2)c2cc(N3CCNCC3)c(F)cc2c1=O [CIPROFLOXACIN]', 'MIC', 16.5);

# MIC of "Cc1ccc(-n2nnc(C(=O)/C=C/c3ccccc3)c2C)cc1" = 132

# MIC of Cc1ccc(-n2nnc(C3=NNC(c4ccc(F)cc4)C3)c2C)cc1 (stereo unspecified) = 132

# MIC of Cc1ccc(-n2nnc(C3=NN(c4nc(-c5ccc(Br)cc5)cs4)C(c4ccc(F)cc4)C3)c2C)cc1 (stereo unspecified) = 16.5
